Source of measurements: ChEMBL document CHEMBL3124843

Below is a list of entries, each paired with its recorded IC50 value.
Tested on: K562
PROTOCOL DETAILS: Cytostatic activity against paclitaxel-resistant human K562 cells after 72 hrs by MTT assay
Format: functional, cell-based
REPORTED CONDITIONS: K562, 72 h
MEASUREMENT LABEL: IC50 (µM)

- LINE NOTATION: "CSc1ncnc2c1ccn2[C@@H]1O[C@H](CO)[C@@H](O)[C@H]1O"
  EXPERIMENTAL TARGET: "K562"
  MEASUREMENT LABEL: "IC50"
  UNIT TEXT: "µM"
  RELATIONAL OPERATOR: "="
  ENDPOINT RESULT: 0.1
- LINE NOTATION: "C#Cc1cn([C@@H]2O[C@H](CO)[C@@H](O)[C@H]2O)c2ncnc(C)c12"
  EXPERIMENTAL TARGET: "K562"
  MEASUREMENT LABEL: "IC50"
  UNIT TEXT: "µM"
  RELATIONAL OPERATOR: "="
  ENDPOINT RESULT: 0.11
- LINE NOTATION: "Cc1ncnc2c1c(-c1ccsc1)cn2[C@@H]1O[C@H](CO)[C@@H](O)[C@H]1O"
  EXPERIMENTAL TARGET: "K562"
  MEASUREMENT LABEL: "IC50"
  UNIT TEXT: "µM"
  RELATIONAL OPERATOR: "="
  ENDPOINT RESULT: 5.55
- LINE NOTATION: "Cc1nc(N)c2c(-c3ccoc3)cn([C@@H]3O[C@H](CO)[C@@H](O)[C@H]3O)c2n1"
  EXPERIMENTAL TARGET: "K562"
  MEASUREMENT LABEL: "IC50"
  UNIT TEXT: "µM"
  RELATIONAL OPERATOR: ">"
  ENDPOINT RESULT: 20
- LINE NOTATION: "CNc1ncnc2c1c(-c1ccco1)cn2[C@@H]1O[C@H](CO)[C@@H](O)[C@H]1O"
  EXPERIMENTAL TARGET: "K562"
  MEASUREMENT LABEL: "IC50"
  UNIT TEXT: "µM"
  RELATIONAL OPERATOR: "="
  ENDPOINT RESULT: 15.1
- LINE NOTATION: "CN(C)c1ncnc2c1c(-c1ccoc1)cn2[C@@H]1O[C@H](CO)[C@@H](O)[C@H]1O"
  EXPERIMENTAL TARGET: "K562"
  MEASUREMENT LABEL: "IC50"
  UNIT TEXT: "µM"
  RELATIONAL OPERATOR: "="
  ENDPOINT RESULT: 14.9
- LINE NOTATION: "CN(C)c1ncnc2c1c(-c1cc3ccccc3o1)cn2[C@@H]1O[C@H](CO)[C@@H](O)[C@H]1O"
  EXPERIMENTAL TARGET: "K562"
  MEASUREMENT LABEL: "IC50"
  UNIT TEXT: "µM"
  RELATIONAL OPERATOR: ">"
  ENDPOINT RESULT: 20
- LINE NOTATION: "C#Cc1cn([C@@H]2O[C@H](CO)[C@@H](O)[C@H]2O)c2ncnc(SC)c12"
  EXPERIMENTAL TARGET: "K562"
  MEASUREMENT LABEL: "IC50"
  UNIT TEXT: "µM"
  RELATIONAL OPERATOR: "="
  ENDPOINT RESULT: 0.07
- LINE NOTATION: "CSc1ncnc2c1c(-c1cc3ccccc3o1)cn2[C@@H]1O[C@H](CO)[C@@H](O)[C@H]1O"
  EXPERIMENTAL TARGET: "K562"
  MEASUREMENT LABEL: "IC50"
  UNIT TEXT: "µM"
  RELATIONAL OPERATOR: ">"
  ENDPOINT RESULT: 20
